The measured values listed here are drawn from patent US5840684A.

- Test system: Staphylococcus aureus 447
- Protocol summary: broth micro-dilution MIC
- Assay type: cell-based
- Protocol: The MIC's were determined using a standard broth micro-dilution assay.

Compound	Unit annotation	Op	MIC
CNC(CC(C)C)C(=O)NC1C(=O)NC(CC(N)=O)C(=O)NC2C(=O)NC3C(=O)NC(C(=O)NC(C(=O)O)c4cc(O)cc(O)c4-c4cc3ccc4O)C(OC3CC(C)(N)C(O)C(C)O3)c3ccc(c(Cl)c3)Oc3cc2cc(c3OC2OC(CO)C(O)C(O)C2OC2CC(C)(NCCCCCCCCCC#Cc3ccccc3)C(O)C(C)O2)Oc2ccc(cc2Cl)C1O (centres unmarked) [Compound 236]	µg/mL	=	4
C=CCCCCCCCCCNC1(C)CC(OC2C(Oc3c4cc5cc3Oc3ccc(cc3Cl)C(OC3CC(C)(N)C(O)C(C)O3)C3NC(=O)C(NC(=O)C5NC(=O)C(CC(N)=O)NC(=O)C(NC(=O)C(CC(C)C)NC)C(O)c5ccc(c(Cl)c5)O4)c4ccc(O)c(c4)-c4c(O)cc(O)cc4C(C(=O)O)NC3=O)OC(CO)C(O)C2O)OC(C)C1O (centres unmarked) [Compound 204]	µg/mL	≤	0.06
CNC(CC(C)C)C(=O)NC1C(=O)NC(CC(N)=O)C(=O)NC2C(=O)NC3C(=O)NC(C(=O)NC(C(=O)O)c4cc(O)cc(O)c4-c4cc3ccc4O)C(OC3CC(C)(NCc4ccc5c(c4)Cc4ccccc4-5)C(O)C(C)O3)c3ccc(c(Cl)c3)Oc3cc2cc(c3OC2OC(CO)C(O)C(O)C2OC2CC(C)(NCc3ccc4c(c3)Cc3ccccc3-4)C(O)C(C)O2)Oc2ccc(cc2Cl)C1O (centres unmarked) [Compound 279]	µg/mL	=	1
CNC(CC(C)C)C(=O)NC1C(=O)NC(CC(N)=O)C(=O)NC2C(=O)NC3C(=O)NC(C(=O)NC(C(=O)O)c4cc(O)cc(O)c4-c4cc3ccc4O)C(OC3CC(C)(N)C(O)C(C)O3)c3ccc(c(Cl)c3)Oc3cc2cc(c3OC2OC(CO)C(O)C(O)C2OC2CC(C)(NCc3ccc(OCCOCCCl)cc3)C(O)C(C)O2)Oc2ccc(cc2Cl)C1O (centres unmarked) [Compound 75]	µg/mL	=	1
CN[C@H](CC(C)C)C(=O)N[C@H]1C(=O)N[C@@H](CC(N)=O)C(=O)N[C@H]2C(=O)N[C@H]3C(=O)N[C@H](C(=O)N[C@H](C(=O)O)c4cc(O)cc(O)c4-c4cc3ccc4O)[C@H](O[C@H]3C[C@](C)(N)[C@@H](O)[C@H](C)O3)c3ccc(c(Cl)c3)Oc3cc2cc(c3O[C@@H]2O[C@H](CO)[C@@H](O)[C@H](O)[C@H]2O[C@H]2C[C@](C)(NCc3ccc(-c4cccc(F)c4)cc3)[C@@H](O)[C@H](C)O2)Oc2ccc(cc2Cl)[C@H]1O [Compound 92]	µg/mL	=	0.5

====

- System: Staphylococcus aureus S13E
- Type: cell-based
MIC values, listed per item

Molecule	Op	MIC, µg/mL
CNC(CC(C)C)C(=O)NC1C(=O)NC(CC(N)=O)C(=O)NC2C(=O)NC3C(=O)NC(C(=O)NC(C(=O)O)c4cc(O)cc(O)c4-c4cc3ccc4O)C(OC3CC(C)(N)C(O)C(C)O3)c3ccc(c(Cl)c3)Oc3cc2cc(c3OC2OC(CO)C(O)C(O)C2OC2CC(C)(NCc3ccc(-c4ccc(Br)cc4)cc3)C(O)C(C)O2)Oc2ccc(cc2Cl)C1O (centres unmarked)	=	0.5
CNC(CC(C)C)C(=O)NC1C(=O)NC(CC(N)=O)C(=O)NC2C(=O)NC3C(=O)NC(C(=O)NC(C(=O)O)c4cc(O)cc(O)c4-c4cc3ccc4O)C(OC3CC(C)(N)C(O)C(C)O3)c3ccc(c(Cl)c3)Oc3cc2cc(c3OC2OC(CO)C(O)C(O)C2OC2CC(C)(NCc3cc(C)cs3)C(O)C(C)O2)Oc2ccc(cc2Cl)C1O (centres unmarked)	≤	0.06
CNC(CC(C)C)C(=O)NC1C(=O)NC(CC(N)=O)C(=O)NC2C(=O)NC3C(=O)NC(C(=O)NC(C(=O)O)c4cc(O)cc(O)c4-c4cc3ccc4O)C(OC3CC(C)(N)C(O)C(C)O3)c3ccc(c(Cl)c3)Oc3cc2cc(c3OC2OC(CO)C(O)C(O)C2OC2CC(C)(NCc3ccc(NC(=O)c4ccc(F)cc4)cc3)C(O)C(C)O2)Oc2ccc(cc2Cl)C1O (centres unmarked)	≤	0.06
CNC(CC(C)C)C(=O)NC1C(=O)NC(CC(N)=O)C(=O)NC2C(=O)NC3C(=O)NC(C(=O)NC(C(=O)O)c4cc(O)cc(O)c4-c4cc3ccc4O)C(OC3CC(C)(N)C(O)C(C)O3)c3ccc(c(Cl)c3)Oc3cc2cc(c3OC2OC(CO)C(O)C(O)C2OC2CC(C)(NCc3sccc3-c3cccs3)C(O)C(C)O2)Oc2ccc(cc2Cl)C1O (centres unmarked)	=	0.125
CNC(CC(C)C)C(=O)NC1C(=O)NC(CC(N)=O)C(=O)NC2C(=O)NC3C(=O)NC(C(=O)NC(C(=O)O)c4cc(O)cc(O)c4-c4cc3ccc4O)C(OC3CC(C)(N)C(O)C(C)O3)c3ccc(c(Cl)c3)Oc3cc2cc(c3OC2OC(CO)C(O)C(O)C2OC2CC(C)(NCc3ccc(-c4ccccc4[N+](=O)[O-])cc3)C(O)C(C)O2)Oc2ccc(cc2Cl)C1O (centres unmarked)	=	1
